test system: CYP3A; test: Oral midazolam pharmacokinetics (CYP3A phenotyping) in healthy volunteers at baseline, after inhibition and after induction; format: in vivo, human; settings: human, plasma, po, MDZ 1 mg oral; inhibition session (fluvoxamine + voriconazole)
REPORTED_ENDPOINT: Cmax (ng/mL)
// note: answer is a bare numeric in ng/mL

Entry Cc1ncc2n1-c1ccc(Cl)cc1C(c1ccccc1F)=NC2 : reported Cmax = ?
11.7

###

system: CYP3A; test: Oral midazolam pharmacokinetics (CYP3A phenotyping) in healthy volunteers at baseline, after inhibition and after induction; type: in vivo, human; conditions: human, plasma, po, MDZ 1 mg oral; induction session (rifampicin 600 mg, 7 days)
REPORTED_ENDPOINT: Cmax (ng/mL)
// note: answer is a bare numeric in ng/mL

Entry Cc1ncc2n1-c1ccc(Cl)cc1C(c1ccccc1F)=NC2 : reported Cmax = ?
0.15
